System under test: T1, human sortilin stably expressed on HEK 293 cells (HEK-SORT1 cells) (human, UniProt Q99523 78-831)
T1 sequence (looked up): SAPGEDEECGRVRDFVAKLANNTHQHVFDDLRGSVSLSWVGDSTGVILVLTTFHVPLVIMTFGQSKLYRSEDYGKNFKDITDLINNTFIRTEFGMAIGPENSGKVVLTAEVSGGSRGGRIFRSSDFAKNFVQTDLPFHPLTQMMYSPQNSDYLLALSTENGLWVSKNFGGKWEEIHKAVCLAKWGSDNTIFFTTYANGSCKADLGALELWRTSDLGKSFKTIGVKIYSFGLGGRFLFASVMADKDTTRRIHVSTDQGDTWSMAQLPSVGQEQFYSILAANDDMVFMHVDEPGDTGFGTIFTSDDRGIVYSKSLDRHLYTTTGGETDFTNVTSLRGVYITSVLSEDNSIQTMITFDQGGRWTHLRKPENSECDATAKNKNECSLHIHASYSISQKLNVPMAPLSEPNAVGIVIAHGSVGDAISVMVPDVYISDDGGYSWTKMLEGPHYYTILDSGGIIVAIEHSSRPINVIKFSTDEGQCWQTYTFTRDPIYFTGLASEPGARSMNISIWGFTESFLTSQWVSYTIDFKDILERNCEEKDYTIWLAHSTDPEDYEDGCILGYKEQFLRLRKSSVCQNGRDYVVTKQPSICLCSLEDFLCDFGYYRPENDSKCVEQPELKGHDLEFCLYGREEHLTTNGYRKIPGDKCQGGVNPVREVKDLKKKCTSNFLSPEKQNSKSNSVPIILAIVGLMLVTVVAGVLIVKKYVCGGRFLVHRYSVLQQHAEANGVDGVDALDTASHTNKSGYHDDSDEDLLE
Procedure details: cell-based or functional assay
Ends that are not written are not given here.
Decide by Mean Fluorescence Intensity (MFI), uptake 37C-4C, at 12 nM: equal to or exceeding 70 MFI means T, less means F.

Binder	Class name
KPPPAGSSPGLYENKPRRPYIL (not fully specified (residue 1); also: X side chain clicked via BCN (triazole) and 6-aminohexanol linker to 5' end of oligonucleotide CCAGGCTGGTTATGACTCAG (MOE, 3'-Cy3))	F
LYENXPRRPYIL (not fully specified; position 1 is SO5P (5-oxoproline); internal lysine (LYEN-K) side chain azido-acetyl joined via triazolo-BCN carbamate / 6-aminohexanol linker to 5' end of … (SEQ ID NO 2, uniform MOE, phosphodiester, 3'-Cy3))	F
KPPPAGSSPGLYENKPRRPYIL (not fully specified (residue 1); also: Cy3 label attached by BCN click to the azide) [Compound 17-AH-1492, Cy3-labeled extended neurotensin (eNT, …)]	T
XLYENKPRRPYIL (not fully specified; position 1 printed dK (X = 2-azido-acetyl lysine); side chain joined via triazolo-BCN carbamate / 6-aminohexanol linker to the 5' end of oligonucleotide … (SEQ ID NO 2, uniform MOE, phosphodiester, 3'-Cy3))	F

# input Could you tell me if the measured Mean Fluorescence Intensity (MFI), uptake 37C-4C, at 12 nM of LYENXPRRPYIL (not fully specified; position 1 is SO5P (5-oxoproline); internal lysine (LYEN-K) carries the azido-acetyl group joined to Cy3-BCN reagent (Cy3 label)) [Compound 17-AE-9199, Cy3-labeled [SO5P]LYEN[azido-acetyl-K]PRRPYIL peptide] reaches 70 MFI or more?
# output T
